- assay target: cAMP-dependent protein kinase catalytic subunit alpha (Homo sapiens, UniProt P17612)
- method description: Equilibrium Binding/Displacement Assay with Fluorescence Anisotropy
- particulars: pH 7.5
Hi there, I'd appreciate the recorded Kd for every entry that follows.
One number for each entry, in nM.

Known results for compounds:
compound	measure unit	Kd
CC(O)[C@H](NC(=O)[C@H](CCC(N)=O)NC(=O)[C@H](CCCNC(=N)N)NC(=O)[C@H](CCCCNC(=O)C[C@@H](NC(=O)CCCCCNC(=O)[C@H]1O[C@@H](n2cc(I)c3c(N)ncnc32)[C@H](O)[C@@H]1O)C(=O)[O-])NC(=O)[C@H](CCCNC(=N)N)NC(=O)[C@H](C)N)C(=O)N[C@@H](C)C(=O)N[C@H](CCCCNC(=O)c1ccc(-c2c3ccc(=[N+](C)C)cc-3oc3cc(N(C)C)ccc23)c(C(=O)O)c1)C(N)=O (some centres undefined)	nM	4.1
CC(O)[C@H](NC(=O)[C@H](CCC(N)=O)NC(=O)[C@H](CCCNC(=N)N)NC(=O)[C@H](CCCCNC(=O)C[C@@H](NC(=O)CCCCCNC(=O)[C@H]1O[C@@H](n2cc(I)c3c(N)ncnc32)[C@H](O)[C@@H]1O)C(=O)O)NC(=O)[C@H](CCCNC(=N)N)NC(=O)[C@H](C)N)C(=O)N[C@@H](C)C(=O)N[C@H](CCCCN)C(N)=O (some centres undefined)	nM	94
CCCCCCCCCCCCCC(=O)NCCCC[C@@H](NC(=O)[C@H](C)NC(=O)[C@@H](NC(=O)[C@H](CCC(N)=O)NC(=O)[C@H](CCCNC(=N)N)NC(=O)[C@H](CCCCNC(=O)C[C@@H](NC(=O)CCCCCNC(=O)[C@H]1O[C@@H](n2ccc3c(N)ncnc32)[C@H](O)[C@@H]1O)C(=O)[O-])NC(=O)[C@H](CCCNC(=N)N)NC(=O)[C@H](C)N)C(C)O)C(=O)N[C@H](CCCCNC(=O)c1ccc(-c2c3ccc(=[N+](C)C)cc-3oc3cc(N(C)C)ccc23)c(C(=O)O)c1)C(N)=O (some centres undefined)	nM	9.6

Next compound, Kd to be filled in.
Task: // query Kd value for entry CC(O)[C@H](NC(=O)[C@H](CCC(N)=O)NC(=O)[C@H](CCCNC(=N)N)NC(=O)[C@H](CCCCNC(=O)C[C@@H](NC(=O)CCCCCNC(=O)[C@H]1O[C@@H](n2ccc3c(N)ncnc32)[C@H](O)[C@@H]1O)C(=O)[O-])NC(=O)[C@H](CCCNC(=N)N)NC(=O)[C@H](C)N)C(=O)N[C@@H](C)C(=O)N[C@H](CCCCNC(=O)c1ccc(-c2c3ccc(=[N+](C)C)cc-3oc3cc(N(C)C)ccc23)c(C(=O)O)c1)C(N)=O (some centres undefined)
Output: 52
